Biological target: B-Raf kinase (SEQ ID NO: 1) (Homo sapiens, UniProt P15056)
Construct: GST (N); purchased Sigma
Sequence (P15056 416-766): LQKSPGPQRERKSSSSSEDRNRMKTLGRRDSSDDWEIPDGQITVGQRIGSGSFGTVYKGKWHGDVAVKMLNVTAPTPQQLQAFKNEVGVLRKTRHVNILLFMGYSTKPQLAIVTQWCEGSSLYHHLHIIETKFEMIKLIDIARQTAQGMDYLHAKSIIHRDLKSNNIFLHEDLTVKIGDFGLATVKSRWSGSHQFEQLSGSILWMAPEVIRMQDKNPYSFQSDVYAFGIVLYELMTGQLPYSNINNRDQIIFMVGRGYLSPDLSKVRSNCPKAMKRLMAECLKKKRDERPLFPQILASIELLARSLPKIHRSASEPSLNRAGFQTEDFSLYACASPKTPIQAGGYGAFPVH
Experiment: Biochemical assay for B-Raf (coupled pyruvate kinase/lactate dehydrogenase)
Settings: 1 mM ATP; read-out: BRAF (inhibition of biochemical activity, IC50)
Entries and their IC50

- structure notation: "Cc1cc(-c2cc(NC(=O)c3cc(C4CC4)cnn3)ccc2C)cc(N2CCOCC2)n1"
  IC50: "< 100 nM"
- structure notation: "Cc1ccc(NC(=O)c2cncc(Cl)c2)cc1-c1cc(N[C@H](C)CO)nc(N2CCOCC2)c1"
  IC50: "< 100 nM"
- structure notation: "Cc1ccc(NC(=O)c2cc(C(F)(F)F)cnn2)cc1-c1ccnc(N2C[C@H]3C[C@@H]2CO3)c1"
  IC50: "1000 to 10000 nM"
- structure notation: "Cc1ccc(NC(=O)c2cc(C(F)(F)F)cnn2)cc1-c1cc(N2CCOCC2)ncn1"
  IC50: "500 to 1000 nM"
- structure notation: "Cc1ccc(NC(=O)c2cc(C(F)(F)F)cnn2)cc1-c1ccnc(N2C[C@@H](C)O[C@@H](C)C2)c1"
  IC50: "1000 to 10000 nM"
- structure notation: "Cc1ccc(NC(=O)c2cc(C3CC3)cnn2)cc1-c1ccnc(N2C[C@H]3C[C@@H]2CO3)c1"
  IC50: "100 to 500 nM"
- structure notation: "Cc1ccc(NC(=O)c2cc(C(F)(F)F)cnn2)cc1-c1cc(N2CCOCC2)nc(OCCO)n1"
  IC50: "100 to 500 nM"
- structure notation: "CNc1cc(-c2cc(NC(=O)c3cc(C(F)(F)F)cnn3)ccc2C)nc(N2C[C@H]3C[C@@H]2CO3)n1"
  IC50: "1000 to 10000 nM"
- structure notation: "Cc1ccc(NC(=O)c2cc(C3CC3)cnn2)cc1-c1ccnc(N2C[C@@H](C)O[C@@H](C)C2)c1"
  IC50: "1000 to 10000 nM"
- structure notation: "Cc1ccc(NC(=O)c2cc(C3CC3)cnn2)cc1-c1ccnc(N2C[C@@H]3C[C@H]2CO3)c1"
  IC50: "100 to 500 nM"
- structure notation: "Cc1ccc(NC(=O)c2cnc(C(F)(F)F)nc2)cc1-c1cc(OCCO)nc(N2CCOCC2)c1"
  IC50: "1000 to 10000 nM"
- structure notation: "Cc1ccc(NC(=O)c2cc(C(C)C)cnn2)cc1-c1cc(N[C@H](C)CO)nc(N2CCOCC2)c1"
  IC50: "< 100 nM"
- structure notation: "Cc1ccc(NC(=O)c2cc(C(C)C)cnn2)cc1-c1cc(OCCO)nc(N2CCOCC2)c1"
  IC50: "< 100 nM"
- structure notation: "Cc1ccc(NC(=O)c2cc(C(F)(F)F)cnn2)cc1-c1nc(N[C@H](C)CO)cc(N2CCOCC2)n1"
  IC50: "1000 to 10000 nM"
- structure notation: "Cc1ccc(NC(=O)c2cc(Cl)cnn2)cc1-c1cc(N[C@H](C)CO)nc(N2CCOCC2)c1"
  IC50: "100 to 500 nM"
- structure notation: "Cc1ccc(NC(=O)c2cc(C3CC3)cnn2)cc1-c1cncc(N2CCOCC2)c1"
  IC50: "100 to 500 nM"
